# Subject of test: GST-Syk Full Protein (human) (Homo sapiens)
# Procedure summary: Syk kinase inhibition test (HTRF method)
# Assay type: biochemical
# Experimental parameters: Tables 1-x, compounds A; read-out: sykHTRF ave IC50
As shown below, each of these compounds has a reported IC50 value.

Previously resolved entries follow.
Compound: Cc1ccnc(Nc2cccc(-c3cnc(CN4CCNC(=O)C4)s3)n2)c1
Subject of test: GST-Syk Full Protein (human) (Homo sapiens)
IC50: < 100 nM
--
Compound: Cc1ccnc(Nc2cccc(-c3cnc(N4CCC[C@@H](CO)C4)s3)n2)c1
Subject of test: GST-Syk Full Protein (human) (Homo sapiens)
IC50: < 100 nM
--
Compound: Cc1ccnc(Nc2cccc(-c3cnc(N4CCC(C(=O)N5CCNC(=O)C5)CC4)s3)n2)c1
Subject of test: GST-Syk Full Protein (human) (Homo sapiens)
IC50: < 100 nM
--
Compound: Cc1ccnc(Nc2cccc(-c3cnc(CN(C)CC(=O)NCC(C)(C)C)s3)n2)c1
Subject of test: GST-Syk Full Protein (human) (Homo sapiens)
IC50: 100 to 1000 nM
--
Compound: Cc1ccnc(Nc2cccc(-c3cnc(N4CCN(CC(=O)OC(C)(C)C)C(=O)C4)s3)n2)c1
Subject of test: GST-Syk Full Protein (human) (Homo sapiens)
IC50: 100 to 1000 nM

Task item: If you can, please state the reported IC50 value of O=C(O)CC1CCN(c2ncc(-c3cccc(Nc4ncccn4)n3)s2)CC1 .
Reply: 100 to 1000 nM

Task item: Consider the compound Cc1ccnc(Nc2cccc(-c3cnc(N4CCC[C@@H](c5nnn[nH]5)C4)s3)n2)c1 and give its measured IC50.
Reply: < 100 nM

Task item: What does the data say about its IC50? Entry: CC(=O)NCCNC(=O)C1CCC(N(C)c2ncc(-c3cccc(Nc4cc(C)ccn4)n3)s2)CC1 (centres unmarked)
Reply: < 100 nM

###

Below, each of the compounds is paired with its reported IC50 value.
# Subject of test: UniProtKB P43405
# Procedure summary: Syk kinase inhibition test (HTRF method)
# Format: biochemical
# Experimental parameters: HTRF, 100 μM ATP, 30 min room temperature, average; read-out: sykHTRF ave IC50

Compound: Cc1ccnc(Nc2cccc(-c3cnc(CCNS(C)(=O)=O)s3)n2)c1 [Compound A-261]
IC50: 100 to 1000 nM

Task item: For C[C@H](O)c1ncc(-c2cccc(Nc3cc(CCO)ccn3)n2)s1 [Compound A-321] , what is its reported IC50?
Reply: < 100 nM

Task item: What value of IC50 has been reported for the following compound? Cc1ccnc(Nc2cccc(-c3sc([C@H](C)N)nc3C)n2)c1 [Compound A-104]
Reply: 100 to 1000 nM

Task item: Sample Cc1ccnc(Nc2cccc(-c3cnc([C@H]4CC[C@H](C(=O)N5CC[C@H](O)[C@@H](O)C5)CC4)s3)n2)c1 [Compound A-225] — what was its IC50?
Reply: 100 to 1000 nM

Task item: Entry Cc1ccnc(Nc2cccc(-c3cnc(C4CCN(C(=O)N5CCC(O)CC5)CC4)s3)n2)c1 [Compound A-251] has what IC50?
Reply: 100 to 1000 nM

###

# Test system: cultured human mast cells
# Procedure summary: Degranulation inhibition test using cultured human mast cells (IgE cross-linking, β-Hexosaminidase release)
# Type: cell-based
# Experimental parameters: Mast cell; cultured human mast cells, anti-hIgE stimulation, β-Hexosaminidase index, average; read-out: human degranulation ave. IC50
pIC50: −log10 of the molar value.
Readout name: pIC50

Observe how each entry below is paired with its result.
Smi: Cc1ccnc(Nc2cccc(-c3cnc([C@H]4CC[C@H](C(=O)NCCN(C)C)CC4)s3)n2)c1
pIC50: 6.00 to 7.00

Smi: COC(=O)N(C)Cc1ncc(-c2cccc(Nc3cc(C)ccn3)n2)s1
pIC50: 6.00 to 7.00

Task item: # get_value(readout= pIC50, system= cultured human mast cells) for Cc1ccnc(Nc2cccc(-c3cnc(CNC(=O)CCO)s3)n2)c1
Reply: 6.00 to 7.00

Task item: Write down the reported pIC50 of CC(=O)N[C@H]1CC[C@H](c2ncc(-c3cccc(Nc4cc(C)ccn4)n3)s2)CC1 , test system: cultured human mast cells.
Reply: < 6.00
